Assay system: Phospholipase A2, major isoenzyme (Sus scrofa)
Sequence (P00592 whole entry): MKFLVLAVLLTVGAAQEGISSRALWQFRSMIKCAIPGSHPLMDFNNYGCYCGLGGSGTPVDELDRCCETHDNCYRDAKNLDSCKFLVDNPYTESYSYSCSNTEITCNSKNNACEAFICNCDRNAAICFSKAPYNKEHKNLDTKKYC
Experiment notes: In vitro inhibition of porcine pancreatic phospholipase A2 evaluated by Deoxycholate-phospholipid mixed micelle assay
pIC50: −log10 of the molar value.
Measurement type: pIC50

{"Compound": "CCCCCCCCCCCCCCCC(=O)N[C@H](C)COP(=O)([O-])OCC[N+](C)(C)C", "Assay system": "Phospholipase A2, major isoenzyme (Sus scrofa)", "pIC50": 3.72}
{"Compound": "CCCCCCCCCCCCCCCC(=O)N[C@@H](COP(=O)(O)OCCO)CC(C)C", "Assay system": "Phospholipase A2, major isoenzyme (Sus scrofa)", "pIC50": 5.59}
{"Compound": "CCCCCCCCCCCCCCCCCCOC[C@H](COP(=O)([O-])OCC[N+](C)(C)C)NC(=O)CCCCCCCCCCCCCCC", "Assay system": "Phospholipase A2, major isoenzyme (Sus scrofa)", "pIC50": 4.82}
{"Compound": "CCCCCCCCCCCCCCCC(=O)NCCOP(=O)([O-])OCC[N+](C)(C)C", "Assay system": "Phospholipase A2, major isoenzyme (Sus scrofa)", "pIC50": 3.52}

(1) CCCCCCCCCCCCCCCC(=O)N[C@@H](COP(=O)([O-])OCC[N+](C)(C)C)CC(C)C
(2) CCCCCCCCCCCCCCCC(=O)OCC(COP(=O)(O)OCCO)NC(=O)CCCCCCCCCCCCC (stereo unspecified)
Task item: Select one. Lower pIC50: 1 or 2 State your choice using its label.
Reply: 1
